System: wild-type HIV-1 strain IIIB
experiment.description: microbe, parasite or virus in culture
Format: cell-based
particulars: class symbols
pEC50: −log10 of the molar value.
outcome.measure: pEC50

Query: Could you tell me which pEC50 is on file for COc1ccc(S(=O)(=O)N(CC(C)C)CC(O)C(Cc2ccc(NCP(=O)(NC(C)C(=O)OC(C)C)Oc3ccccc3)cc2)NC(=O)OC2COC3OCCC23)cc1 (centres unmarked) [drawing 1822] ?
Response: > 7.30

Query: Could you tell me which pEC50 is on file for COc1ccc(S(=O)(=O)N(CC(C)C)CC(O)C(Cc2ccc(NCP(=O)(NC(C)C(=O)OC(C)C)Oc3ccccc3)cc2)NC(=O)OC2COC3OCCC23)cc1 (centres unmarked) [drawing 1821] ?
Response: 6.30 to 7.30

* * *

target.of.assay: 84V90M (Human immunodeficiency virus type 1 group M subtype B, UniProt P04585, I572V/L578M)
Type: biochemical, HIV
particulars: Enzymatic assay
outcome.measure: IC50 (nM)
The reply should contain only the number, in nM.

Query: Could you tell me which IC50 is on file for O=C1N(Cc2ccccc2)C(Cc2ccccc2)C(O)C(O)C(Cc2ccc(OCP(=O)(O)O)cc2)N1Cc1ccccc1 (stereo not shown) ?
Response: 48

Query: Could you tell me which IC50 is on file for O=C1N(Cc2ccccc2)C(Cc2ccccc2)C(O)C(O)C(Cc2ccccc2)N1Cc1ccccc1 (stereo not shown) ?
Response: 631

Query: Could you tell me which IC50 is on file for CCOP(=O)(COc1cccc(CN2C(=O)N(Cc3ccc4[nH]nc(N)c4c3)C(Cc3ccccc3)C(O)C(O)C2Cc2ccccc2)c1)OCC (stereo not shown) ?
Response: 169

Query: Could you tell me which IC50 is on file for Nc1n[nH]c2ccc(CN3C(=O)N(Cc4cccc(OCP(=O)(OCc5ccccc5)OCc5ccccc5)c4)C(Cc4ccccc4)C(O)C(O)C3Cc3ccccc3)cc12 (stereo not shown) ?
Response: 43

* * *

Tested on: recombinant HIV-1 10I/48V/54V/82A
experiment.description: microbe, parasite or virus in culture
Format: cell-based
particulars: Human immunodeficiency virus 1, read-out: Cell-based assay (MT-4) EC50/nM 48V54V82A
outcome.measure: EC50 (nM)
The reply should contain only the number, in nM.

Query: Given the entry CCOP(=O)(CCNC(=O)Oc1ccc(CC2C(O)C(O)C(Cc3ccc(OC)cc3)N(Cc3cccc(N)c3)C(=O)N2Cc2cccc(N)c2)cc1)OCC (stereo not shown) , what EC50 was observed with recombinant HIV-1 10I/48V/54V/82A?
Response: 262

* * *

Test system: wild-type HIV-1 strain IIIB
experiment.description: microbe, parasite or virus in culture
Assay type: cell-based
particulars: Human immunodeficiency virus 1, IIIB, class symbols
pEC50: −log10 of the molar value.
outcome.measure: pEC50

Query: Could you tell me which pEC50 is on file for CCOC(=O)C(CC)OP(=O)(COc1ccc(CC(NC(=O)OC2COC3OCCC23)C(O)CN(CC(C)C)S(=O)(=O)c2ccc(OC)cc2)cc1)Oc1ccccc1 (centres unmarked) [Compound 5a] ?
Response: > 7.30

Query: Could you tell me which pEC50 is on file for COC(=O)C(C)OP(=O)(COc1ccc(CC(NC(=O)OC2COC3OCCC23)C(O)CN(CC(C)C)S(=O)(=O)c2ccc(OC)cc2)cc1)Oc1ccccc1 [drawing 1775 R1=OPh R2=(R)Lac-Me] ?
Response: > 7.30

Query: Could you tell me which pEC50 is on file for CC(C)CN(CC(O)C(Cc1ccc(OCP(=O)(NC(C)C(=O)OC(C)C)Oc2ccccc2)cc1)NC(=O)OC1CCOC1)S(=O)(=O)c1ccc(N)cc1 (centres unmarked) [drawing 1864 R1=OPh R2=Ala-iPr] ?
Response: 6.30 to 7.30

Query: Could you tell me which pEC50 is on file for CCOC(=O)C(C)OP(=O)(COc1ccc2c(c1)CCN(CC(NC(=O)OC1COC3OCCC13)C(O)CN(CC(C)C)S(=O)(=O)c1ccc(OC)cc1)C2)Oc1ccccc1 (centres unmarked) ?
Response: 6.30 to 7.30

Query: Could you tell me which pEC50 is on file for COc1ccc(S(=O)(=O)N(CC(C)C)CC(O)C(Cc2ccc(NCP(=O)(NC(C)C(=O)OC(C)C)Oc3ccccc3)cc2)NC(=O)OC2COC3OCCC23)cc1 (centres unmarked) [drawing 1820] ?
Response: > 7.30

Where these numbers come from: patent US20070010489A1
